- target_or_test_system: human UT-B (Homo sapiens)
- Construct: endogenous in cells; host or cells: human erythrocytes
- assay_details: erythrocyte lysis model, human erythrocytes
- Type: cell-based
- setup_conditions: Activity level, class of the IC50 to human UT-B

mol_smiles	IC50
O=C(Nc1ccc(NC(=O)c2ccc([N+](=O)[O-])o2)cc1)c1ccc([N+](=O)[O-])o1	< 10 µM

* * *

- target_or_test_system: human UT-B (Homo sapiens, UniProt Q13336)
- Construct: endogenous in cells; host or cells: human erythrocytes
- assay_details: erythrocyte lysis model, human erythrocytes
- Assay type: cell-based
- setup_conditions: concentration when the erythrocyte lysis rate of human was 50%; read-out: IC50 human
pIC50: −log10 of the molar value.
Listing of entries alongside the reported pIC50.

mol_smiles	pIC50
CNC(=O)c1cc(NC(=O)c2ccc([N+](=O)[O-])o2)ccc1O	5.58
Nc1cccc(NC(=O)c2ccc([N+](=O)[O-])o2)c1	5.45
O=C(Nc1ccon1)c1ccc([N+](=O)[O-])o1	5.44
Cn1cc(NC(=O)c2ccc([N+](=O)[O-])o2)cn1	4.80
N#Cc1cccc(NC(=O)c2ccc([N+](=O)[O-])o2)c1	6.00
CN(C)CCNC(=O)c1cccc(NC(=O)c2ccc([N+](=O)[O-])o2)c1	5.43
CN(C)CCC(=O)Nc1ccc(NC(=O)c2ccc([N+](=O)[O-])o2)cc1	5.18
CN(C)CCNCC(=O)Nc1ccc(NC(=O)c2ccc([N+](=O)[O-])o2)cc1	5.52
O=C(Nc1ccccc1F)c1ccc([N+](=O)[O-])o1	5.44

* * *

- target_or_test_system: UT-B (Mus musculus, UniProt Q8VHL0)
- Construct: endogenous in cells
- Sequence (Q8VHL0 1-384): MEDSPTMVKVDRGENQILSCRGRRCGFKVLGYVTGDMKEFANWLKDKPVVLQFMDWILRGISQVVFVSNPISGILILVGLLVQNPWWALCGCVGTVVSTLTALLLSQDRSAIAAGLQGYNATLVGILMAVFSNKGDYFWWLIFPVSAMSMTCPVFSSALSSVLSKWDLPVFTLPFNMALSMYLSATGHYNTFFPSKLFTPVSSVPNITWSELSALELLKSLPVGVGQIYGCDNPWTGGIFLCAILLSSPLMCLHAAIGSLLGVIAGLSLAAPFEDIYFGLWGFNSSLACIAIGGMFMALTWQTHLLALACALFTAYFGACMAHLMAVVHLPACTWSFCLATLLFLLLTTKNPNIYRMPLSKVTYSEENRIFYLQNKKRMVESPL
- assay_details: erythrocyte lysis model, mouse erythrocytes
- setup_conditions: concentration when the erythrocyte lysis rate of mice was 50%
pIC50: −log10 of the molar value.
Hi, to clarify the labels: true covers pIC50 from 5 upward, false covers anything below 5.

compound	class_name
O=C(Nc1ccccc1F)c1ccc([N+](=O)[O-])o1 [Example 35]	false
CC(=O)Nc1ccc(NC(=O)c2ccc([N+](=O)[O-])s2)cc1 [Example 9]	false
CCNC(=O)c1cccc(NC(=O)c2ccc([N+](=O)[O-])o2)c1 [Example 55]	true
CN(C)CC(=O)Nc1ccc(NC(=O)c2ccc([N+](=O)[O-])o2)cc1 [Example 71]	true
CNC(=O)c1cccc(NC(=O)c2ccc(C(C)=O)o2)c1 [Example 78, 3-(5-acetyl-2-furoyl)carbamamide]	true
O=C(Nc1cccc(O)c1)c1ccc([N+](=O)[O-])o1 [Example 32]	true
O=C(Nc1ccc2ncccc2c1)c1ccc([N+](=O)[O-])o1 [Example 16]	true
Cc1cccc(NC(=O)c2ccc([N+](=O)[O-])o2)c1 [Example 28]	false

* * *

Listing of entries alongside the reported pIC50.
- target_or_test_system: UT-B (Rattus norvegicus, UniProt P97689)
- Construct: endogenous in cells; host or cells: erythrocytes of SD rats
- Sequence (P97689 whole entry): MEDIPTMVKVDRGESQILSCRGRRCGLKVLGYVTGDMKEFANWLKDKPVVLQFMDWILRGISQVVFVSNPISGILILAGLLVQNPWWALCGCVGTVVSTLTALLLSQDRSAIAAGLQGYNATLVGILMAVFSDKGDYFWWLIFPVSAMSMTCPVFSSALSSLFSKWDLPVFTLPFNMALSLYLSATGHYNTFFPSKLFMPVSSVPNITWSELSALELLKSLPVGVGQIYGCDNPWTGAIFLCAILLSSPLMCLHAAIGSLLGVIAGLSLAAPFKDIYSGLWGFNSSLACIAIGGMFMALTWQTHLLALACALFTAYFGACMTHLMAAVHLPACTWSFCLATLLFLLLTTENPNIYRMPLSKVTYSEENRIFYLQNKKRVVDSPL
- assay_details: erythrocyte lysis model, rat erythrocytes
- Assay type: cell-based, rats
- setup_conditions: concentration when the erythrocyte lysis rate of rats was 50%; read-out: IC50 rats
pIC50: −log10 of the molar value.
measure_name: pIC50

compound	val
O=C(Nc1cccc(Cl)c1)c1ccc([N+](=O)[O-])o1	5.98
CCOC(=O)c1cc(NC(=O)c2ccc([N+](=O)[O-])o2)[nH]n1	5.11
Nc1cccc(NC(=O)c2ccc([N+](=O)[O-])o2)c1	5.74
CCNC(=O)c1cccc(NC(=O)c2ccc([N+](=O)[O-])o2)c1	5.92
CN(C)CC(=O)Nc1ccc(NC(=O)c2ccc([N+](=O)[O-])o2)cc1	6.24
NCc1ccc(NC(=O)c2ccc([N+](=O)[O-])o2)cc1	6.31
CC(C)CNC(=O)c1cccc(NC(=O)c2ccc([N+](=O)[O-])o2)c1	7.05
CC(=O)c1cccc(NC(=O)c2ccc([N+](=O)[O-])o2)c1	6.31
CNC(=O)c1cccc(NC(=O)c2ccc(C(C)=O)o2)c1 [Example 78, 3-(5-acetyl-2-furoyl)carbamamide]	6.62

* * *

Listing of entries alongside the reported log10 IC50.
- target_or_test_system: human UT-B (Homo sapiens, UniProt Q13336)
- Construct: endogenous in cells; host or cells: human erythrocytes
- assay_details: erythrocyte lysis model, human erythrocytes
- Type: cell-based
- setup_conditions: concentration when the erythrocyte lysis rate of human was 50%; read-out: IC50 human
measure_name: log10 IC50 (log10 of the value in nM)

compound	val
CN(C)C(=O)c1cccc(NC(=O)c2ccc([N+](=O)[O-])o2)c1	2.87
COc1ccccc1NC(=O)c1ccc([N+](=O)[O-])o1	3.69
CNC(=O)c1cccc(NC(=O)c2ccc(C(C)=O)o2)c1 [Example 78, 3-(5-acetyl-2-furoyl)carbamamide]	2.11
O=C(Nc1ccc(CCO)cc1)c1ccc([N+](=O)[O-])o1	3.72
O=C(Nc1cc[nH]n1)c1ccc([N+](=O)[O-])o1	2.34
CC(=O)c1cccc(NC(=O)c2ccc([N+](=O)[O-])o2)c1	3.26
CNC(=O)c1cccc(NC(=O)c2ccc([N+](=O)[O-])o2)c1	1.36
O=C(NCc1ccccc1)c1cccc(NC(=O)c2ccc([N+](=O)[O-])o2)c1	2.69
CC(=O)Nc1ccc(NC(=O)c2ccc([N+](=O)[O-])s2)cc1	3.40

* * *

- target_or_test_system: human UT-B (Homo sapiens)
- Construct: endogenous in cells; host or cells: human erythrocytes
- Sequence (Q13336 1-389): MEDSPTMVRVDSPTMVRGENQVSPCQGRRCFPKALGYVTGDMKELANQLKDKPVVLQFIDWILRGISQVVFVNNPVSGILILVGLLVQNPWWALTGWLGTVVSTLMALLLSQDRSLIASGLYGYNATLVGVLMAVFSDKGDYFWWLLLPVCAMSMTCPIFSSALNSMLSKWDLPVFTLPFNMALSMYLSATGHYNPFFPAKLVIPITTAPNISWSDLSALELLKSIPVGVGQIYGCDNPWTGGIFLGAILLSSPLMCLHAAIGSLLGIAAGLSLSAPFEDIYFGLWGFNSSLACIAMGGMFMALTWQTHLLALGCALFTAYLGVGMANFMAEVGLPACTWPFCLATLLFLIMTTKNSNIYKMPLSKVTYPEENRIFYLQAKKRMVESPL
- assay_details: erythrocyte lysis model, human erythrocytes
- Format: cell-based
- setup_conditions: class of the IC50 to human UT-B; read-out: Activity level
measure_name: IC50

mol_smiles	measure_name	val
CNC(=O)c1cccc(NC(=O)c2ccc([N+](=O)[O-])o2)c1	IC50	< 10 µM
Cn1ccc(NC(=O)c2ccc([N+](=O)[O-])o2)n1	IC50	< 10 µM
O=C(Nc1ccc(CCO)cc1)c1ccc([N+](=O)[O-])o1	IC50	< 10 µM
O=C(NC1CCCCC1)c1cccc(NC(=O)c2ccc([N+](=O)[O-])o2)c1	IC50	< 10 µM
C#Cc1cccc(NC(=O)c2ccc([N+](=O)[O-])o2)c1	IC50	< 10 µM
CCOC(=O)c1c[nH]nc1NC(=O)c1ccc([N+](=O)[O-])o1	IC50	> 80 µM
Nc1cccc(NC(=O)c2ccc([N+](=O)[O-])o2)c1	IC50	< 10 µM
CNC(=O)c1cc(NC(=O)c2ccc([N+](=O)[O-])o2)cc(C(=O)NC)c1	IC50	20 to 80 µM
CCOC(=O)c1cccc(NC(=O)c2ccc([N+](=O)[O-])o2)c1	IC50	< 10 µM

* * *

- target_or_test_system: UT-B (Rattus norvegicus, UniProt P97689)
- Construct: endogenous in cells; host or cells: erythrocytes of SD rats
- assay_details: erythrocyte lysis model, rat erythrocytes
- Type: cell-based, rats
- setup_conditions: concentration when the erythrocyte lysis rate of rats was 50%; read-out: IC50 rats
pIC50: −log10 of the molar value.

compound	pIC50
CN(C)C(=O)c1cccc(NC(=O)c2ccc([N+](=O)[O-])o2)c1 [Example 54]	6.70
CN(C)CCC(=O)Nc1ccc(NC(=O)c2ccc([N+](=O)[O-])o2)cc1 [Example 73]	5.89
CN1C(=O)c2ccc(NC(=O)c3ccc([N+](=O)[O-])o3)cc2C1=O [Example 69]	5.53
O=C(NCCCN1CCOCC1)c1cccc(NC(=O)c2ccc([N+](=O)[O-])o2)c1 [Example 62]	5.85
O=C(Nc1ccc(CCO)cc1)c1ccc([N+](=O)[O-])o1 [Example 50]	5.08
O=C(Nc1ccc2ncccc2c1)c1ccc([N+](=O)[O-])o1 [Example 16]	5.26
O=C(CN1CCOCC1)Nc1ccc(NC(=O)c2ccc([N+](=O)[O-])o2)cc1 [Example 72]	5.54
CC(=O)Nc1ccc(NC(=O)c2ccc([N+](=O)[O-])s2)cc1 [Example 9]	4.70
CNC(=O)c1cc(C)cc(NC(=O)c2ccc([N+](=O)[O-])o2)c1 [Example 64]	6.49
CC(C)NC(=O)c1cccc(NC(=O)c2ccc([N+](=O)[O-])o2)c1 [Example 56]	5.75
Cn1ccc(NC(=O)c2ccc([N+](=O)[O-])o2)n1 [Example 21]	5.96
CNC(=O)c1cc(NC(=O)c2ccc([N+](=O)[O-])o2)ccc1O [Example 67]	5.95
Cn1cc(NC(=O)c2ccc([N+](=O)[O-])o2)cn1 [Example 22]	5.02
O=C(Nc1cccc(F)c1)c1ccc([N+](=O)[O-])o1 [Example 36]	5.73
COc1ccccc1NC(=O)c1ccc([N+](=O)[O-])o1 [Example 29]	5.39
CN(C)CCNCC(=O)Nc1ccc(NC(=O)c2ccc([N+](=O)[O-])o2)cc1 [Example 74]	5.91
O=C(NCc1ccccc1)c1cccc(NC(=O)c2ccc([N+](=O)[O-])o2)c1 [Example 59]	6.59
Cc1cccc(NC(=O)c2ccc([N+](=O)[O-])o2)c1 [Example 28]	5.41
O=C(NC1CCCCC1)c1cccc(NC(=O)c2ccc([N+](=O)[O-])o2)c1 [Example 58]	6.05
CNC(=O)c1cc(NC(=O)c2ccc([N+](=O)[O-])o2)ccc1C [Example 63]	5.75

Origin of values: patent US12428389B2
